Molecular target: hGLP-1R (Homo sapiens, UniProt P43220)
Sequence (P43220 24-463): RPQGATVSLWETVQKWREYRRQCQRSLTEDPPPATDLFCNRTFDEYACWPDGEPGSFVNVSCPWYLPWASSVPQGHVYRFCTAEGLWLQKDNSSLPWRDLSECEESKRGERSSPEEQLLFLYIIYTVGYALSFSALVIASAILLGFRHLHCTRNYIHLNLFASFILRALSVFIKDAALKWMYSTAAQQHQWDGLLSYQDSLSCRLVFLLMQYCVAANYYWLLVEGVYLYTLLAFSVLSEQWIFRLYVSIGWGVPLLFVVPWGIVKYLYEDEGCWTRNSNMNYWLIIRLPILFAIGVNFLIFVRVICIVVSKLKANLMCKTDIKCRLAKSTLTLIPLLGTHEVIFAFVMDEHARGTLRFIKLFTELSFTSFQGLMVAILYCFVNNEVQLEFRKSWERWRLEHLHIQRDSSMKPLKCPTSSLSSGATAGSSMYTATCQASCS
Test: cell-based or functional assay
Measured property: Relative cAMP EC50 (nM)
# number only, unit nM dropped from output

Consider the worked cases shown below.
YXQGTFTSDXSQXLDKKAQXAFIEYLIEXGPSSGAPPPSGTE (non-natural residues; (γGlu)2-C18 diacid on Lys; C-terminal amide; synthetic construct; SITE 2: note = 2-Aminoisobutyric Acid; SITE 10: note = 3-(4-Pyridyl)-L-alanine; SITE 13: note = alpha-methyl-leucine; SITE 17: note = Lysine is chemically modified through conjugation of the epsilon-amino group of the Lysine side chain with (gamma-Glu)2-CO-(CH2)16-CO2H; SITE 20:) [Example 1126] : 4.56
YXQGTFTSDXSQXLDXKAQXAFIEXLIAXGPSSGAPPPSGSEE (non-natural residues, acylated Lys, C-terminal amide; synthetic construct; SITE 2: note = 2-Aminoisobutyric Acid; SITE 10: note = 3-(4-Pyridyl)-L-alanine; SITE 13: note = alpha-methyl-leucine; SITE 16: note = L-ornithine; SITE 17: note = Lysine is chemically modified through conjugation of the epsilon-amino group of the Lysine side chain with (2-[2-(2-) [Example 1110] : 0.508
YXQGTFTSDYSXXLDKKAQXAFIEYLLEGGESSGAPPPSGS (synthetic construct; SITE 2: note = 2-Aminoisobutyric Acid; SITE 12: note = L-ornithine; SITE 13: note = alpha-methyl-leucine; SITE 17: note = Lysine is chemically modified through conjugation of the epsilon-amino group of the Lysine side chain with (2-[2-(2-Amino-ethoxy)-ethoxy]-acetyl)-(gamma-Glu)) [Example 359] : 4.61
YXQGTXTSDXXIXLDXKAQXXFIEYLIEGGPSSGEPPPSGTE (not fully specified; printed without C-terminal amide; synthetic construct; SITE 2: note = 2-Aminoisobutyric Acid; SITE 6: note = alpha-methyl-2-fluoro-L-phenylalanine; SITE 10: note = 3-(4-Pyridyl)-L-alanine; SITE 11: note = alpha-methyl-L-serine; SITE 13: note = alpha-methyl-leucine; SITE 16: note = L-ornithine; SITE 17: note = Lysine is chemically mo) [Example 522] : 0.51
YXQGTXTSDXXIXLDXKAQXEFIEXLIEGGPSSGEPPPSGSE (non-natural residues, C-terminal amide, acylated Lys with fatty diacid; synthetic construct; SITE 2: note = 2-Aminoisobutyric Acid; SITE 6: note = alpha-methyl-2-fluoro-L-phenylalanine; SITE 10: note = 3-(4-Pyridyl)-L-alanine; SITE 11: note = alpha-methyl-L-serine; SITE 13: note = alpha-methyl-leucine; SITE 16: note = L-ornithine; SITE 17: note = Lysine is chemically mo) [Example 1179] : 0.652

Now consider a different binder.
(Q) Which Relative cAMP EC50 value belongs to YXQGTFTSDFSKXLDKKAQXAFIEYLLAGGPSSGEPPPSGG (Aib, αMeL; Lys acylated; C-terminal amide; synthetic construct; SITE 2: note = 2-Aminoisobutyric Acid; SITE 13: note = alpha-methyl-leucine; SITE 17: note = Lysine is chemically modified through conjugation of the epsilon-amino group of the Lysine side chain with (2-[2-(2-Amino-ethoxy)-ethoxy]-acetyl)-(gamma-Glu)-CO-(CH2) 18-CO2H; SITE 20: n) [Example 6] ?
(A) 1.95
